Source of measurements: ChEMBL document CHEMBL1130083

Answer each item with its documented IC50.
# Measurement Target: UniProt:Q01726
# Sequence (Q01726 whole entry): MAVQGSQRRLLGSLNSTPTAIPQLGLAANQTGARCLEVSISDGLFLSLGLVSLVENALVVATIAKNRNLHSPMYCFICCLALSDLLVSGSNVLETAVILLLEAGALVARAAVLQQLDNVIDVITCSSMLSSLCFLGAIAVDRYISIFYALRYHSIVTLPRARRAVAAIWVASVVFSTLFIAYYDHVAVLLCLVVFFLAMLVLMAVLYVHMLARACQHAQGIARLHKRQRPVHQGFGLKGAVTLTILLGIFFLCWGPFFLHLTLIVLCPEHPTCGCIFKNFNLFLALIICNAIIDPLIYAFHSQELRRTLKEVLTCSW
# Procedure Text: Displacement of [125I]NDP-MSH from Melanocortin 1 receptor at 10 uM

Look over these answered cases.
Structure Smiles String	IC50
CC(=O)N[C@@H](Cc1ccccc1)C(=O)N[C@H](CCCN=C(N)N)C(=O)N[C@H](Cc1c[nH]c2ccccc12)C(N)=O	> 10 µM
CC(=O)N[C@@H](Cc1ccccc1)C(=O)N[C@@H](CCCNC(=N)N)C(=O)N[C@H](Cc1c[nH]c2ccccc12)C(N)=O	> 10 µM

Would you kindly look at the next entry?
Prompt: Field request: IC50 | item: "CC(=O)N[C@@H](Cc1c[nH]cn1)C(=O)N[C@@H](Cc1ccccc1)C(=O)N[C@@H](CCCN=C(N)N)C(=O)N[C@H](Cc1c[nH]c2ccccc12)C(N)=O"
Response: 6.35 µM
